Recorded urea by entry
# measurement description: blood morphology, blood biochemistry and organ weights of mice with 67NR tumor
# assay context: Table S3, plasma, mice with 67NR tumor, 50 mg/kg per os; N=9

NS(=O)(=O)Oc1ccc(-c2cn(-c3cc(F)cc(F)c3)nn2)cc1 [5l]: 8,1±0,7 mmol/L
NS(=O)(=O)Oc1ccc(-c2cn(-c3cccc(F)c3)nn2)cc1 [5g]: 8,83±1,32 mmol/L
NS(=O)(=O)Oc1ccc(-c2cn(-c3cc(Cl)cc(Cl)c3)nn2)cc1 [4b]: 6,94±0,69 mmol/L
NS(=O)(=O)Oc1ccc(-c2cn(-c3ccc(F)c(F)c3F)nn2)cc1 [5e]: 7,65±0,54 mmol/L

Now take the following compound into account.
q: Look up urea for this compound: NS(=O)(=O)Oc1ccc(-c2cn(-c3cccc(Cl)c3)nn2)cc1 [4a]
a: 7,92±0,66 mmol/L

* * *

Examples of molecules with documented HCT follow.
# measurement description: blood morphology, blood biochemistry and organ weights of mice with 67NR tumor
# assay context: Table S2, mice with 67NR tumor, 50 mg/kg

NS(=O)(=O)Oc1ccc(-c2cn(-c3cc(F)cc(F)c3)nn2)cc1 [5l]: 34,7±2,1%
NS(=O)(=O)Oc1ccc(-c2cn(-c3cccc(Cl)c3)nn2)cc1 [4a]: 35,9±3,2%
NS(=O)(=O)Oc1ccc(-c2cn(-c3ccc(F)c(F)c3F)nn2)cc1 [5e]: 34,6±1,6%
NS(=O)(=O)Oc1ccc(-c2cn(-c3cc(Cl)cc(Cl)c3)nn2)cc1 [4b]: 36,6±2,7%

Switching to the query record.
q: Value lookup for HCT; key = NS(=O)(=O)Oc1ccc(-c2cn(-c3cccc(F)c3)nn2)cc1 [5g]
a: 35±2,4%

* * *

# measurement description: blood morphology, blood biochemistry and organ weights of mice with 67NR tumor
# assay context: Table S2, mice with 67NR tumor, 50 mg/kg
measurement label: RDW

NS(=O)(=O)Oc1ccc(-c2cn(-c3cc(Cl)cc(Cl)c3)nn2)cc1: 18,2±0,5%
NS(=O)(=O)Oc1ccc(-c2cn(-c3ccc(F)c(F)c3F)nn2)cc1: 19,2±1,2%
NS(=O)(=O)Oc1ccc(-c2cn(-c3cccc(F)c3)nn2)cc1: 19,1±1,5%
NS(=O)(=O)Oc1ccc(-c2cn(-c3cc(F)cc(F)c3)nn2)cc1: 18,4±1%

Alright, here's another compound for you.
q: Data request, read-out RDW, for NS(=O)(=O)Oc1ccc(-c2cn(-c3cccc(Cl)c3)nn2)cc1
a: 18±0,5%

* * *

Parameter: GRAN. Scope: all listed entries.
# Type: in vivo
# assay context: Table S1, MTD study, 50 mg/kg

Observe how each entry below is paired with its result.
NS(=O)(=O)Oc1ccc(-c2cn(-c3cc(Cl)cc(Cl)c3)nn2)cc1 [4b]: 11,0±1,7%
NS(=O)(=O)Oc1ccc(-c2cn(-c3cccc(Cl)c3)nn2)cc1 [4a]: 13,2±3,6%
NS(=O)(=O)Oc1ccc(-c2cn(-c3cccc(F)c3)nn2)cc1 [5g]: 12,4±1,7%
NS(=O)(=O)Oc1ccc(-c2cn(-c3ccc(F)c(F)c3F)nn2)cc1 [5e]: 11,1±1,9%

Pending compound:
q: What does the record list as GRAN for NS(=O)(=O)Oc1ccc(-c2cn(-c3cc(F)cc(F)c3)nn2)cc1 [5l] ?
a: 10,6±0,2%
